tested-target: UniProt:P00519
Sequence (P00519 whole entry): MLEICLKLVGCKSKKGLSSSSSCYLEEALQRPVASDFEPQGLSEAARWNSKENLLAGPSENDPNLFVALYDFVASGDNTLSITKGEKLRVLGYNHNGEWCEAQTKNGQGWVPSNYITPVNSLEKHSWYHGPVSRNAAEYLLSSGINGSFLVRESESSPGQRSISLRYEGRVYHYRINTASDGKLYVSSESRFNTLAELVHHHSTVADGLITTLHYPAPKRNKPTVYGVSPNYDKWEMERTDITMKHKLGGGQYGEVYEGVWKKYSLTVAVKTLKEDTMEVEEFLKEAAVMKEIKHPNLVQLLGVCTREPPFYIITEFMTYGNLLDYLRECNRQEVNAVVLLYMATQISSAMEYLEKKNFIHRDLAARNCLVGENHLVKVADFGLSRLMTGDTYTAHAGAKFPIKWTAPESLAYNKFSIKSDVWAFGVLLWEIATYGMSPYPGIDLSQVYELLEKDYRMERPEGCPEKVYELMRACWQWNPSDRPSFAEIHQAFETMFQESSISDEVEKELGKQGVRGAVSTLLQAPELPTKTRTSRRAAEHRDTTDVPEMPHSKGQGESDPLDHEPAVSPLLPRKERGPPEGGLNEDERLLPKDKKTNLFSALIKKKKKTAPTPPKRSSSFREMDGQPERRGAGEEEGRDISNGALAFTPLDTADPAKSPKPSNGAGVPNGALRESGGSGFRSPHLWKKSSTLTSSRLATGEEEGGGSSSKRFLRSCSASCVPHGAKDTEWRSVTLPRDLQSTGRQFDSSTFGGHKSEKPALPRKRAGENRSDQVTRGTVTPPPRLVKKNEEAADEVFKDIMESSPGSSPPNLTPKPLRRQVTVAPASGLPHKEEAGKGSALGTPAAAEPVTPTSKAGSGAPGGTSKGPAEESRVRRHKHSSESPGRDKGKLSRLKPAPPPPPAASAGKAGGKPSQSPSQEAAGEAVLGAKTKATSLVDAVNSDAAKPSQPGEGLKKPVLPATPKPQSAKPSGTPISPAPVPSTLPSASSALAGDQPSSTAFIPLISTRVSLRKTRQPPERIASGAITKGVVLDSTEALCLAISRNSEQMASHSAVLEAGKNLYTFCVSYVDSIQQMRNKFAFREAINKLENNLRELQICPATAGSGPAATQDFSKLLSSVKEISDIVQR
measured-attribute: IC50 (nM)

1) Cc1ccc(C(=O)Nc2ccc(CNCCN)c(C(F)(F)F)c2)cc1C#Cc1cnc2cccnn12 [LPon] ... 1.93

* * *

tested-target: FGFR1 (Homo sapiens, UniProt P11362)
Sequence (P11362 22-822): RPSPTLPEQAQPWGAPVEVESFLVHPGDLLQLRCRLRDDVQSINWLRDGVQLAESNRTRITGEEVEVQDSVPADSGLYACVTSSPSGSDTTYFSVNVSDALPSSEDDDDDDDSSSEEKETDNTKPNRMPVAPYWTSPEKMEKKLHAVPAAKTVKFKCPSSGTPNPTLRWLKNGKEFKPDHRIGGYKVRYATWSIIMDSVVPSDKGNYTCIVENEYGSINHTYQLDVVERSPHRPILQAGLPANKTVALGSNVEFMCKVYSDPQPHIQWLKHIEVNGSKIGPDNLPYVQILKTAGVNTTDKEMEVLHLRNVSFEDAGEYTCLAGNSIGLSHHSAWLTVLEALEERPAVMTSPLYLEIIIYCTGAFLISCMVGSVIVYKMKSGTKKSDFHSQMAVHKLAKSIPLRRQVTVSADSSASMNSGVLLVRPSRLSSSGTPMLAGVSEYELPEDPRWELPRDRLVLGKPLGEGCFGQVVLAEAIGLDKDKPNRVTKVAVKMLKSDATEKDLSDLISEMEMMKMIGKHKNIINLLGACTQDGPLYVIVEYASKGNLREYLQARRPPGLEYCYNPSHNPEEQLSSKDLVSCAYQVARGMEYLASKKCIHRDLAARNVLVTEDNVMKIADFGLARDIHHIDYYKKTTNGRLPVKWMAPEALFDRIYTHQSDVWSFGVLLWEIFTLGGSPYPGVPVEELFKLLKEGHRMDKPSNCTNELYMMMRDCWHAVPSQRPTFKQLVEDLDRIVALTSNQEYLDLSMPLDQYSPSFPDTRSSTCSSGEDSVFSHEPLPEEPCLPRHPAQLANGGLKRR
measured-attribute: IC50 (nM)

1. Cc1ccc(C(=O)Nc2ccc(CNCCN)c(C(F)(F)F)c2)cc1C#Cc1cnc2cccnn12 [LPon] ... 25.9

Reference source for all entries: paper PMC8129988
